- system: TDO (Homo sapiens (Human))
- test method notes: Tryptophan-2,3-dioxygenase inhibitory activity (absorbance at 321 nm)
- Assay type: biochemical
- setup conditions: compound at 10 μM; 50 nM TDO, 200 μM tryptophan; read-out: TDO Inhibition rate
observable: inhibition at 10 µM (%)

O=C1c2cc(F)ccc2-n2c1nc1ncccc1c2=O
44

A = O=C1c2cc(Cl)ccc2-n2c1nc1ncccc1c2=O
B = O=c1c2cccnc2nc2n1-c1ccc(Cl)cc1C2=NO
Sorting ascending by inhibition at 10 µM, which comes first: A or B ? Returns: label corresponding to the selected item.
B
(B: 6%, A: 35%)

###

- system: TDO (Homo sapiens (Human), UniProt P48775)
- Sequence (P48775 whole entry): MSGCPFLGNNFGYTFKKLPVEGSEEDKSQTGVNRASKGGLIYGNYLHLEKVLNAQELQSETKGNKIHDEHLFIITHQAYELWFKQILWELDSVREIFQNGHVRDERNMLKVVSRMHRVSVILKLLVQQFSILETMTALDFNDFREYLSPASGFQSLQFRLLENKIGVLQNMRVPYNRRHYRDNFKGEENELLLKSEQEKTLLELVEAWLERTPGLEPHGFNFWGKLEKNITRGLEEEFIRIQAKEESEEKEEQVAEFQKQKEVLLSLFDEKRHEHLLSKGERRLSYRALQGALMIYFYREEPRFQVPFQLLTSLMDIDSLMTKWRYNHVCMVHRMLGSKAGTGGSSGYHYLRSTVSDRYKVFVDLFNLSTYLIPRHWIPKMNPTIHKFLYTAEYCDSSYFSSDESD
- test method notes: Tryptophan-2,3-dioxygenase inhibitory activity (absorbance at 321 nm)
- Type: biochemical
- setup conditions: compound at 10 μM; 50 nM TDO, 200 μM tryptophan; read-out: TDO Inhibition rate
observable: inhibition at 10 µM (%)

a = CN(C)CCON=C1c2cc([N+](=O)[O-])ccc2-n2c1nc1ncccc1c2=O [CY-1-17]
b = O=C1c2cc(OC(F)(F)F)ccc2-n2c1nc1ncccc1c2=O [CY-1-3]
c = NC(=S)NN=C1c2cc([N+](=O)[O-])ccc2-n2c1nc1ncccc1c2=O [CY-1-29]
Can you order these entries from above by inhibition at 10 µM? Start with the largest number and work down. Sort the labels as requested; that list is your answer.
c, a, b
